SYSTEM UNDER TEST: QPCT (Homo sapiens, UniProt Q16769)
Construct: purchased Origine (so in the source)
Sequence (Q16769 29-361): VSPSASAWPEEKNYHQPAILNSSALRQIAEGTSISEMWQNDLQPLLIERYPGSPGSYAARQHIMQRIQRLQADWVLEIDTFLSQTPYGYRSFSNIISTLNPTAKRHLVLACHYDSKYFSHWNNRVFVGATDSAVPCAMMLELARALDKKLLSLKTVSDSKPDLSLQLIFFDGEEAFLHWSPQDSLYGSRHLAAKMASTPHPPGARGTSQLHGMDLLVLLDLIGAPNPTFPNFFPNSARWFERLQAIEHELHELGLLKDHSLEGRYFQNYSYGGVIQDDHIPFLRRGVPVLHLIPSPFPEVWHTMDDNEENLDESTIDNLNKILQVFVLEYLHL
EXPERIMENT NOTES: Assay A: biochemical QPCT activity assay (MALDI-TOF MS, CD47 peptide substrate)
COND: compounds of the invention; 0.5 nM enzyme, 20 μM CD47 peptide substrate; read-out: Inhibition of QPCT: IC50
OBSERVATION TYPE: IC50 (nM)
State just the number; it will be interpreted in nM.

Qu. Which IC50 value is on record for `Cn1cnnc1C1(F)CCN(c2c(C#N)cc(C3CC3)nc2-c2cnc3nn(C(C)(C)C)c(F)c3c2)CC1` ?
Ans. 1

Qu. Record request: IC50 value, item `Cn1cnnc1C1(F)CCN(c2c(C#N)cc(C3CC3)nc2-c2ccc(F)nc2)CC1`
Ans. 4

Qu. Any idea what its IC50 is? The molecule is `Cc1cnc(-c2ccc(F)nc2)c(N2CCC(F)(c3nncn3C)CC2)c1C#N`
Ans. 2

Qu. Would you kindly share the measured IC50 for `Cn1cnnc1C1(F)CCN(c2c(C#N)cc(C(C)(F)F)nc2-c2cnc3nn(C(C)(C)C)cc3c2)CC1` ?
Ans. 1

Qu. Using the record for `Cn1cnnc1C1(F)CCN(c2c(C#N)cc(C(F)(F)F)nc2-c2cnc3nn(C(C)(C)C)c(C(F)(F)F)c3c2)CC1` , report its IC50.
Ans. 5

Qu. Consider the molecule shown here: `Cn1cnnc1C1(F)CCN(c2c(C#N)cc(C(F)(F)F)nc2-c2cnc(F)cc2Cl)CC1` What is its recorded IC50?
Ans. 27

* * *

Record type: pIC50 measurement. Applies to: QPCTL (Homo sapiens)
pIC50 here: minus log base 10 of the concentration, concentration in moles per litre.

Qu. Requested field: pIC50. Item: `Cn1cnnc1C1(F)CCN(c2c(-c3ccc(F)nc3)ncc(C(F)(F)F)c2C#N)CC1`
Ans. 8.40

Qu. Query (molecule): `Cn1cnnc1C1(F)CCN(c2c(C#N)cc(C(F)(F)F)nc2-c2cnc3nn(C(C)(C)C)c(Cl)c3c2)CC1` ; field requested: pIC50
Ans. 9.00

Qu. Any idea what its pIC50 is? The molecule is `Cn1cnnc1C1(F)CCN(c2c(C#N)cc(C(F)(F)F)nc2-c2cnc3nn(C(F)(F)F)nc3c2)CC1`
Ans. 7.25

Qu. Fill in the blank: the reported pIC50 of `CC(C)n1nc2ncc(-c3nc(C(F)(F)F)cc(C#N)c3N3CCC(F)(c4nncn4C)CC3)cc2c1F` is ____.
Ans. 8.70

* * *

pIC50: −log10 of the molar value.
OBSERVATION TYPE: pIC50

Qu. Given the entry `Cn1cnnc1C1(F)CCN(c2c(-c3cnc4nn(C(C)(C)C)cc4c3)ncc(Cl)c2C#N)CC1` , what pIC50 was observed with QPCT (Homo sapiens)?
Ans. > 9.00

Qu. Lookup: pIC50 / QPCT (Homo sapiens) / `Cc1cc(C#N)c(N2CCC(F)(c3nncn3C)CC2)c(-c2cnc3nn(C(C)(C)C)c(Cl)c3c2)n1`
Ans. > 9.00

Qu. For the record `Cn1cnnc1C1(F)CCN(c2c(C#N)cc(C3CC3)nc2-c2cnc3nn(C(C)(C)C)cc3c2)CC1` , what value of pIC50 is listed for QPCT (Homo sapiens)?
Ans. > 9.00
